Value source: paper PMC11184554

Tested on: ex vivo adult mixed sex S. mansoni
assay.notes: Phenotypic screen with ex vivo adult schistosomes
Type: cell-based
cond: 6 h, 5 µM

- compound: "CCC(C)C(C(=O)OC(CC(C)C)C(=O)NC(CC(C)C)C(=O)NC(C)C=CC(=O)N1C(=O)C=C(OC)C1CC(C)C)N(C)C (stereo not shown)"
  adult phenotype descriptors: "N"
- compound: "COC1=CC(=O)N(C(=O)/C=C/[C@H](C)NC(=O)[C@H](CC(C)C)NC(=O)[C@H](CC(C)C)OC(=O)[C@H](Cc2ccccc2)N(C)C)[C@H]1Cc1ccccc1"
  adult phenotype descriptors: "unc"
- compound: "CCC(C)C(C(=O)OC(CC(C)C)C(=O)NC(CC(C)C)C(=O)NC(C)C=CC(=O)N1C(=O)C=C(OC)C1Cc1ccccc1)N(C)C (stereo not shown)"
  adult phenotype descriptors: "unc"
- compound: "CC[C@H](C)[C@@H](C(=O)O[C@@H](CC(C)C)C(=O)N[C@@H](CC(C)C)C(=O)N[C@@H](C)/C=C/C(=O)N1C(=O)C=C(OC)[C@@H]1C)N(C)C [gallinamide A]"
  adult phenotype descriptors: "N"
